Data provenance: patent US20070048247A1

- assay: Example 7 urine odor panel ranking (16 millimolar)
- Parameters: species or system Human
- condition_summary: Example 7 Group F; 16 millimolar in urine; 1 least, 10 most urine malodor
- Experimental: The effectiveness of various quinone compounds in reducing urine odor was compared. […] Human female urine was initially collected and pooled at Kimberly-Clark Corporation. The pooled urine was added to mason jars in 50-milliliter aliquots using an automated pipette aid. […]
recorded_metric: Average Rankings (Group F), Avg. Score

[[record]]
structure_smiles_string = "CC(=O)Nc1ccc(Nc2cc(S(=O)(=O)[O-])c(N)c3c2C(=O)c2ccccc2C3=O)cc1.[Na+]"
recorded_metric = "Average Rankings (Group F), Avg. Score"
quantitative_readout = 3.8

[[record]]
structure_smiles_string = "Nc1c(S(=O)(=O)O)cc(Nc2ccc(Nc3nc(Cl)nc(Nc4cccc(S(=O)(=O)O)c4)n3)c(S(=O)(=O)O)c2)c2c1C(=O)c1ccccc1C2=O"
recorded_metric = "Average Rankings (Group F), Avg. Score"
quantitative_readout = 5.2

[[record]]
structure_smiles_string = "Cc1ccc(Nc2ccc(Nc3ccc(C)cc3S(=O)(=O)[O-])c3c2C(=O)c2ccccc2C3=O)c(S(=O)(=O)[O-])c1.[Na+].[Na+]"
recorded_metric = "Average Rankings (Group F), Avg. Score"
quantitative_readout = 3.2

[[record]]
structure_smiles_string = "Cc1cc(C)c(S(=O)(=O)[O-])c(C)c1Nc1ccc(Nc2c(C)cc(C)c(S(=O)(=O)[O-])c2C)c2c1C(=O)c1ccccc1C2=O.[Na+].[Na+]"
recorded_metric = "Average Rankings (Group F), Avg. Score"
quantitative_readout = 5.4

